Test: background-corrected fluorescence of 3'-dye-labeled ssDNA relative to brightest sequence (3'-GCGCG) (fraction); higher = brighter dye fluorescence (less quenching)
Conditions: dye: Cy5 (3' terminal)
Quantity: background-corrected fluorescence
Please reply with the value in numeric form only.

> print(dat)
                            record.sequence                           quantity  observed.value
1  TTTTTTCATCAGCATGCGCATTTTTTTTTTTTTTTGGTAT [TATGG]  background-corrected fluorescence           0.411

stdin: For the sequence TTTTTTGCTCATGATGCGCATTTTTTTTTTTTTTTAGCAT [TACGA] , give its measured background-corrected fluorescence value.
stdout: 0.405

====

Assay: background-corrected fluorescence of 3'-dye-labeled ssDNA relative to brightest sequence (3'-GCGCG) (fraction); higher = brighter dye fluorescence (less quenching)
Conditions: dye: Cy5 (3' terminal)
Quantity: background-corrected fluorescence
Please reply with the value in numeric form only.

stdin: For the sequence TTTTTGCATGCTCATGATGATTTTTTTTTTTTTTTTAGCC [CCGAT] , give its measured background-corrected fluorescence value.
stdout: 0.311

stdin: For the sequence TTTTTTGCTGCTGAGCATGCTTTTTTTTTTTTTTTAACTA [ATCAA] , give its measured background-corrected fluorescence value.
stdout: 0.406

stdin: For the sequence TTTTTTGCTGCGCATGCTGATTTTTTTTTTTTTTTAATAC [CATAA] , give its measured background-corrected fluorescence value.
stdout: 0.317

stdin: For the sequence TTTTTGCATGATCATGAGCATTTTTTTTTTTTTTTTCGCT , give its measured background-corrected fluorescence value.
stdout: 0.392

stdin: For the sequence TTTTTGCATGCTGATGAGCATTTTTTTTTTTTTTTTACCT [TCCAT] , give its measured background-corrected fluorescence value.
stdout: 0.345

stdin: For the sequence TTTTTTCAGCAGCATGCGCATTTTTTTTTTTTTTTGTTAT [TATTG] , give its measured background-corrected fluorescence value.
stdout: 0.389

stdin: For the sequence TTTTTTGAGCAGCATGATGATTTTTTTTTTTTTTTCTTCC [CCTTC] , give its measured background-corrected fluorescence value.
stdout: 0.229

stdin: For the sequence TTTTTTGATGATGCTGATCATTTTTTTTTTTTTTTCCACG [GCACC] , give its measured background-corrected fluorescence value.
stdout: 0.386

stdin: For the sequence TTTTTTGATGCTGCTCAGCATTTTTTTTTTTTTTTCAAGT [TGAAC] , give its measured background-corrected fluorescence value.
stdout: 0.478

stdin: For the sequence TTTTTTGAGCATGCTCATCATTTTTTTTTTTTTTTCTAGG [GGATC] , give its measured background-corrected fluorescence value.
stdout: 0.507

====

Assay: background-corrected fluorescence of 3'-dye-labeled ssDNA relative to brightest sequence (3'-GCGCG) (fraction); higher = brighter dye fluorescence (less quenching)
Settings: dye: Cy3 (3' terminal)
// not met strictly below 0.6 in background-corrected fluorescence; met otherwise

// known answers, use as guide
> print(dat)
                            record.sequence  classification
1  TTTTTGCATGCTCATGATGCTTTTTTTTTTTTTTTTAGCA [ACGAT]         not met
2  TTTTTGCATGCTCATGATCATTTTTTTTTTTTTTTTAGCG [GCGAT]             met

stdin: Check if background-corrected fluorescence >= 0.6 (inclusive). Item: TTTTTTGCGCATGCTGCTGATTTTTTTTTTTTTTTATAAC [CAATA]
stdout: not met

stdin: Check if background-corrected fluorescence >= 0.6 (inclusive). Item: TTTTTGCAGCATGATGATGATTTTTTTTTTTTTTTTTCCC [CCCTT]
stdout: not met

stdin: Check if background-corrected fluorescence >= 0.6 (inclusive). Item: TTTTTGCAGCAGCATGCTCATTTTTTTTTTTTTTTTTTAG [GATTT]
stdout: not met

stdin: Check if background-corrected fluorescence >= 0.6 (inclusive). Item: TTTTTTGAGCATCAGCATGATTTTTTTTTTTTTTTCTGTC
stdout: not met
